target: human ether-à-go-go-related gene (hERG) potassium channel (human); assay: primary screen, population patch clamp on CHO cells stably expressing hERG; higher = less effect of the substance;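 further: peak tail current of the secondary pulse compared with the same well before compound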
Sequence (Q12809 whole entry, looked up): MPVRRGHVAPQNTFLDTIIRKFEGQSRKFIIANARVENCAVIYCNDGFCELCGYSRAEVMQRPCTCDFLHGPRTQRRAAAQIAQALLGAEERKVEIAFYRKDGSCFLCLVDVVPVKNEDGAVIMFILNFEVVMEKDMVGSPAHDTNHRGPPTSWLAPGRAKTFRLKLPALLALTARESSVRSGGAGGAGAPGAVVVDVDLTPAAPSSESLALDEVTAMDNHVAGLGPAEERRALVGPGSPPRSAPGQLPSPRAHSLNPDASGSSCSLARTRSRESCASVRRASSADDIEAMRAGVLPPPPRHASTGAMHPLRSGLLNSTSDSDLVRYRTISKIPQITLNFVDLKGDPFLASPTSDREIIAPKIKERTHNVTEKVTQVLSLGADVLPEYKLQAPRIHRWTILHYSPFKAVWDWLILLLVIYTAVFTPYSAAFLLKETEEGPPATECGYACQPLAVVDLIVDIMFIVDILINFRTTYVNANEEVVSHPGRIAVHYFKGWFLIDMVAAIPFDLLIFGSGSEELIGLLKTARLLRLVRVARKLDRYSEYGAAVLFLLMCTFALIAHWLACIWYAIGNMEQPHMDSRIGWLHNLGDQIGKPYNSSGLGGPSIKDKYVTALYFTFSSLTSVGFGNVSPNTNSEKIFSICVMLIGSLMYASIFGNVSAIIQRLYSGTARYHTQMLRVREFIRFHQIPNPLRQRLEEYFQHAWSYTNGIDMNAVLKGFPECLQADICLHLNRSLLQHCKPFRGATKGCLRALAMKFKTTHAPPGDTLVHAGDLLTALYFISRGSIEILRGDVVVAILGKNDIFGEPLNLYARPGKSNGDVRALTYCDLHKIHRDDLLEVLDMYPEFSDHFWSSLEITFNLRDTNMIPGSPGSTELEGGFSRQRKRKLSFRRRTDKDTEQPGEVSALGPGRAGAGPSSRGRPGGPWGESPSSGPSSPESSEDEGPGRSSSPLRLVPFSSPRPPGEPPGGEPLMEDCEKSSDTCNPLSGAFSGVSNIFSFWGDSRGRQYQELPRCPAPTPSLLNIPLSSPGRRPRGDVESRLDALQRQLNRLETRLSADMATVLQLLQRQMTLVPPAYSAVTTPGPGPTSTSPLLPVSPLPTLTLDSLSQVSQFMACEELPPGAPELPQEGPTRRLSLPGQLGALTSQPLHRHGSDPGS
Among all 310,000 compounds or so, about 14,000 (4.5%) showed an effect of 50% or more. The effect is printed as a negative number. The full list was thinned out, with strong results kept by preference.
measured parameter: hERG current change (%, negative = inhibition) at 10uM (%)
Write the answer as a number in %, unit excluded.

Request: Endpoint output: hERG current change (%, negative = inhibition) at 10uM of `O=C1[C@@H]2[C@H](C(=O)N1n1cnnc1)[C@H]1C=C[C@@H]2C1` . Value?
Result: 11.5

Request: Now this one: Cc1ccc(NC(=O)CC2C(=O)NCCN2C(=O)c2ccc(F)cc2)cc1 (stereo not shown)
Result: -26.3

Request: Now this one: `CCn1cc(C(=O)NCc2ccccc2OC)c(=O)c2ccc(C)nc21`
Result: 17.6

Request: Now this one: `CC(=O)N1CCC(=NNC(=O)CSc2cc(C)c(Br)cc2C)CC1`
Result: 6.38

Request: Now this one: CC(OC(=O)c1cccc(S(=O)(=O)N2CCOCC2)c1)C(=O)NC1CCCCC1C (stereo not shown)
Result: 5.52

Request: Now this one: `Cc1ccccc1-c1nc(CN2CCC(C(=O)NCc3cccs3)CC2)c(C)o1`
Result: -70.5

Request: Now this one: CC(NC(=O)c1ccccc1)c1nc2ccccc2n1Cc1ccc(C#N)cc1 (stereo not shown)
Result: -68.6

Request: Now this one: `C=CCn1c(SCc2cccc(C#N)c2)nnc1-c1ccccc1O`
Result: -30.4

Request: Now this one: O=C(NNC(=O)C1CC=CCC1C(=O)O)c1ccc(Cl)cc1 (stereo not shown)
Result: 20.6

Request: Now this one: `Cc1ccccc1CN1CCC(n2nccc2NC(=O)CCOc2ccccc2)CC1`
Result: -44.9

Request: Now this one: COc1cccc(/C=C2/Oc3ccccc3N(CC(=O)NCC3CCCO3)C2=O)c1 (stereo not shown)
Result: 14

Request: Now this one: N#Cc1ccc(CN2CCN(C(=O)CC(NC(=O)c3ccccc3)c3ccccc3)CC2)cc1 (stereo not shown)
Result: -81.2

Request: Now this one: O=C(C1=C(O)C(=O)N(c2ncccn2)C1c1ccc(Cl)cc1)c1ccco1 (stereo not shown)
Result: 7.37

Request: Now this one: `O=C(NC(=S)N1CCN(Cc2ccccc2)CC1)c1ccccc1`
Result: 6.47

Request: Now this one: `CSC1=N/C(=C\c2ccccc2F)C(=O)S1`
Result: -3.24

Request: Now this one: COc1ccc(COCC(O)CN(Cc2ccccc2)C(C)C)cc1OC (stereo not shown)
Result: 0.398

Request: Now this one: `O=C(CNC(=O)c1ccccc1Cl)NC1CCN(Cc2ccccc2)CC1`
Result: 13.1

Request: Now this one: `CCCN1CCC(=NNC(=O)CSc2cc(C)c(Br)cc2C)CC1`
Result: -28

Request: Now this one: CCC1(CC)NC(=O)N(CC(=O)OC(C)C(=O)Nc2ccc(NC(C)=O)cc2)C1=O (stereo not shown)
Result: 3.1

Request: Now this one: COc1cccc(N2CCN(C(=O)CC(NC(=O)c3ccccc3)c3ccccc3)CC2)c1 (stereo not shown)
Result: -65

Request: Now this one: Cc1oc(-c2ccccc2F)nc1CS(=O)CC(=O)NCc1cccs1 (stereo not shown)
Result: -12

Request: Now this one: `COCc1ccc(CN2CCC(n3nccc3NC(=O)CCOc3ccccc3)CC2)o1`
Result: -0.748

Request: Now this one: Cc1cccc(N2CCN(C(=O)CC(NC(=O)c3ccccc3)c3ccccc3)CC2C)c1 (stereo not shown)
Result: -47.1

Request: Now this one: `Cc1cc(SCC(=O)NN=C2CCN(C(C)C)CC2)c(C)cc1Br`
Result: -69.4

Request: Now this one: `CCCN(CCC)Cc1c(C(=O)OCC)nnn1-c1nonc1N`
Result: -12.7

Request: Now this one: `Cl.O=C(NC1CCN(Cc2ccccc2)CC1)c1ccccc1OCc1ccccc1`
Result: -69.3

Request: Now this one: `Cc1oc(-c2ccccc2F)nc1CN1CCC(C(=O)NCc2cccs2)CC1`
Result: -63.7

Request: Now this one: CC(C)(C)c1ccc(C(=O)N2CCNC(=O)C2CC(=O)Nc2ccc(F)cc2)cc1 (stereo not shown)
Result: 13.9

Request: Now this one: `CCOc1ccccc1C(=O)NC1CCN(Cc2ccccc2)CC1`
Result: -46.6

Request: Now this one: `COC(=O)CNC(=O)CSc1nnc(-c2ccc(OC)cc2)n1CC(C)C`
Result: 4.97

Request: Now this one: `CCCCn1nnnc1SCC(=O)Nc1ccc(C)cc1`
Result: 2.26

Request: Now this one: CCC1(CC)NC(=O)N(CC(=O)OC(C)C(=O)Nc2ccccc2OC)C1=O (stereo not shown)
Result: 32.3

Request: Now this one: CC(C)N(Cc1ccccc1)CC(O)COc1ccc(S(=O)(=O)N2CCOCC2)cc1Cl (stereo not shown)
Result: -32.3

Request: Now this one: CCOc1ccc(C(C)=O)cc1N1C(=O)C2C3C=CC(C3)C2C1=O (stereo not shown)
Result: 8.85

Request: Now this one: CC(NC(=O)c1ccccc1)c1nc2ccccc2n1Cc1ccccc1F (stereo not shown)
Result: 0.996

Request: Now this one: `CC[C@H](C)/C=C(C)/C=C/C1=CC2=CC(=O)[C@]3(C)OC(=O)[C@@H](C(C)=O)[C@@H]3C2=CO1`
Result: 4.65

Request: Now this one: `C=CCn1c(SCc2ccc(C#N)cc2)nnc1-c1cccc(Cl)c1`
Result: -72.7

Request: Now this one: `Cc1cccc2nc(Cn3c(=O)n(CCCC(=O)NCc4ccco4)c(=O)c4ccccc43)cc(=O)n12`
Result: -23

Request: Now this one: `C=CCn1c(SCC(=O)O)nnc1-c1cccc(Cl)c1`
Result: 4.71

Request: Now this one: `CC(C)c1nc(SCC(=O)N2CCCC2)c2c(=O)n(C)c(=O)n(C)c2n1`
Result: -21.8
